Where do these numbers come from? They come from a melting point compilation (Tetko et al.; mined from patent text by program, amines drawn as free bases though some values may be those of a salt).

Provide the recorded melting point for the entries that follow.

Previously resolved entries follow.
O=C(C=Cc1ccccc1)NN1CC(=O)NC1=O    276 to 278 °C
COc1ccc(-c2[nH]cc(C(C)=O)c2N)cc1    198 to 200 °C
Cc1nn(-c2ccccn2)c2c1C(=NO)CC(C)(C)C2Br (stereo unspecified)    195 to 196 °C
COc1cc2c(cc1N1CCN(CC3=CC4=CSCC4=C3)CC1)OCC2    156 to 158 °C
Nc1cc(NC(=O)c2ccc(Cl)c(Cl)c2)ccc1F    151 to 153 °C

Here is another compound to look at.
Task: Request the reported melting point associated with COC1CC(OC)(OC)C(=O)O1 (stereo unspecified)
Output: 55 °C

###

Hi there, I'd appreciate the recorded melting point for every entry that follows.

Study these solved cases before continuing.
C=CCc1c(OC(C)=O)cc(C)c2c(C)cc(=O)oc12    166 °C
CC(C)(C)NC(=O)NN1CC=CCC1    156 °C
CCOC(=O)COc1c(Cl)c(Cl)c2c(-c3ccccc3F)noc2c1Cl    140 to 143 °C
Cc1cc(OCc2oc(-c3ccc(C(F)(F)F)cc3)nc2C)ccc1CCC(=O)O    113 to 115 °C
CNC(=O)NC(=O)C(CC1CCCC1)c1ccc(-c2cccc3ccccc23)cc1 (stereo not given)    85 to 88 °C
Oc1cc2c3ccc(O)c(O)c3n(CCCc3ccccc3)c2cc1O    246 to 252 °C
CSC(=NC(=O)N(C)C)N(C)C(=O)Nc1ccccc1    74 to 77 °C
CCC1(CCCCN2CC=C(c3ccc(Cl)cc3)CC2)C(=O)Nc2ccccc21 (stereo not given)    142 to 145 °C
O=C(O)Cn1c(-c2ccc(Cl)c(Cl)c2)nc2cccnc21    248 to 249 °C

# evaluate next
Task: So what does the record say about melting point for CCOP(=O)(Cc1nc(Cl)cc(N2CCCC2)n1)OCC ?
Output: 68 to 69 °C

###

measured-attribute: melting point

O=C1C2CC3CC2C(C(=O)O)(C3)N1Cc1ccccc1 (stereo not given)    191 to 194 °C
CCOP(=O)(/C=C/c1cn(-c2ccccc2)nc1OCc1ccc(OCc2nc(-c3ccco3)oc2C)nc1)OCC    134 to 135 °C
Cn1c(=O)c2c(ncn2CCN2CCC(c3c[nH]c4ccc(O)cc34)CC2)n(C)c1=O    232 °C
CCOc1ccc([N+](=O)[O-])c(NCCN2CCOCC2)c1    107 °C
OCC1OC(n2cnc3c(-c4ccccc4)ncnc32)C(O)C1O (stereo not given)    224 to 225 °C

Please state melting point for every molecule in the list that follows.
1. CC(C)(C)OC(=O)Cn1ncc2c1CCN(C(=O)OC(C)(C)C)C2
2. CCOC(=O)c1oc2ccc(OC)cc2c1OCC

Output:
1. 126 to 127 °C
2. 50 to 51 °C

###

measured-attribute: melting point

CCCn1c(COCC)nc2c(N)nc3ccc(OC4CCN(C(=O)NC(C)C)CC4)cc3c21    236 to 239 °C
O=C(O)c1cn(-c2ccc(F)cc2F)c2nc(Cl)c(F)cc2c1=O    242 to 244 °C
CC1(CCN2C(=O)SC(=Cc3ccc(C(F)(F)F)cc3)C2=O)Cn2cc([N+](=O)[O-])nc2O1 (stereo not given)    257 to 258 °C
CC(C)C1CC(=O)C(C(=O)NS(=O)(=O)c2ccc(Cl)cc2)C(=O)C1 (stereo not given)    100 to 102 °C

Task: Entry COC(=O)c1nc(Cl)cnc1N=S(C)C : reported melting point = ?
Output: 167 to 169 °C
